target: human ACC2 (Homo sapiens (Human), UniProt O00763); assay: ACC2 assay (spectrophotometric 384 well assay, NADH-linked kinetic method); format: biochemical; conditions: hACC2 construct lacking 128 N-terminal amino acids; coupled lactate dehydrogenase/pyruvate kinase reaction, 340 nm, 25° C.
Sequence (O00763 129-2458): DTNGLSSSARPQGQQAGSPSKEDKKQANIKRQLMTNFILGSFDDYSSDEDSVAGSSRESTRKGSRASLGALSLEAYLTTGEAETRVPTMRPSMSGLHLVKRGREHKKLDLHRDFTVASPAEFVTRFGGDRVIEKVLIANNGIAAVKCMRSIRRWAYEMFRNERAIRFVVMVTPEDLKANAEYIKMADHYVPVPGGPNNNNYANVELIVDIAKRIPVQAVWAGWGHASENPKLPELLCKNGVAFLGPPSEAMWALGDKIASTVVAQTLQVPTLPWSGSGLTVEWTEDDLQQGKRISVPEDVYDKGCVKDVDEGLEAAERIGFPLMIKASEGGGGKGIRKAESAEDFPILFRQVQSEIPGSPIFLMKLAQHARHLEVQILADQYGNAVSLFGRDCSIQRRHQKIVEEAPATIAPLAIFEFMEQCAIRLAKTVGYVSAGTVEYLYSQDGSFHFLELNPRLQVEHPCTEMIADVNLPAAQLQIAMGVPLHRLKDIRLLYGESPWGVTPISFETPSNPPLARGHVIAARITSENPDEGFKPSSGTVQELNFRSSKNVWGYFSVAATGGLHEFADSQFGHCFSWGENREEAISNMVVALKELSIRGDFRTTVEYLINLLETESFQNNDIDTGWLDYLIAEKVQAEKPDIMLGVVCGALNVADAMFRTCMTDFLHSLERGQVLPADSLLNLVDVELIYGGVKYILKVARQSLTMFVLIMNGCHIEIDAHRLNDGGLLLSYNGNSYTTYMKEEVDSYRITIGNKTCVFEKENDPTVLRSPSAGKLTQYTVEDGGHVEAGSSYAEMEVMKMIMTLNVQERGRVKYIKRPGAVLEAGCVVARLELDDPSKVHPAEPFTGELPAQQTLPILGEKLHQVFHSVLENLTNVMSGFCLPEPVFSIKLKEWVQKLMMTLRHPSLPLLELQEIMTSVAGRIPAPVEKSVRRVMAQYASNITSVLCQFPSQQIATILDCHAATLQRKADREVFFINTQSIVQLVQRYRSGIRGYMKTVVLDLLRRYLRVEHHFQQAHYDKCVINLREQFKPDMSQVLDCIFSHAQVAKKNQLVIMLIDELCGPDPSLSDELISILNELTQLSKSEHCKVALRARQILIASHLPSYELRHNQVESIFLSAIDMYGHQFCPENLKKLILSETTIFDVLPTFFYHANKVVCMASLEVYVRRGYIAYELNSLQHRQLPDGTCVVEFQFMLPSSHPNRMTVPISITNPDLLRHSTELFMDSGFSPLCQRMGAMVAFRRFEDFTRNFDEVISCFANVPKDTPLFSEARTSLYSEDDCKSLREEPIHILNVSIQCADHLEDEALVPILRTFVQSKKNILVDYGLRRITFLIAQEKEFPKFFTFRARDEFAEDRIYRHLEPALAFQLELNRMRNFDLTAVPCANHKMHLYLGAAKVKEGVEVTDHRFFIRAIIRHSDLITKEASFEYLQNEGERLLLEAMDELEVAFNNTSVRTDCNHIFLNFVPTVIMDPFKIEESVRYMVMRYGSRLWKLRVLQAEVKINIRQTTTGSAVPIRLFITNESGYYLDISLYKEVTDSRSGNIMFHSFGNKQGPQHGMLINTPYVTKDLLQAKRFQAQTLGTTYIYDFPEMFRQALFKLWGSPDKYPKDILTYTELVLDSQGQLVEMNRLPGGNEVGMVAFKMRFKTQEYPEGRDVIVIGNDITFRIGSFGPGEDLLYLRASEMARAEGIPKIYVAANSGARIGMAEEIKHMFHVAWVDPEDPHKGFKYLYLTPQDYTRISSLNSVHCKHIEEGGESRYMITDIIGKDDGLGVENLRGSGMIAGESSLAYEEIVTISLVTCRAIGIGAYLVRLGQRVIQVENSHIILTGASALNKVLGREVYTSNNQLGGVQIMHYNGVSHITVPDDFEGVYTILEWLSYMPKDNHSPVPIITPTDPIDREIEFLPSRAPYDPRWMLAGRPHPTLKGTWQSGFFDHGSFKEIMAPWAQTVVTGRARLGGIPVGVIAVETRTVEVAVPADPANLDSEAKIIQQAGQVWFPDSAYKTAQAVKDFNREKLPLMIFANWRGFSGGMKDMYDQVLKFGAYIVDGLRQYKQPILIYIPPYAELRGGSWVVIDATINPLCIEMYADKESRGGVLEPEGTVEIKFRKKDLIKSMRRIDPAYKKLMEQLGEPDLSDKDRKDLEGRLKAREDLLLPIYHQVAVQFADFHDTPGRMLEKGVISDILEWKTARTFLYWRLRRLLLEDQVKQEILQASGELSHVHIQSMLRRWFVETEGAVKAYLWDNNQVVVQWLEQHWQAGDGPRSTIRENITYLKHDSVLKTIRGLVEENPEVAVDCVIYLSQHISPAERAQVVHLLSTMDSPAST
Measured IC50 values are reported for all entries that follow.
Kindly answer with a numeric value in nM, unit omitted.

Observe how each entry below is paired with its result.
| compound | IC50, nM |
| --- | --- |
| CC(=O)N[C@@H](C)c1ccc(O[C@@H]2CCN(c3ccnc(N4CCC(F)(F)C4)n3)C2)cc1 [Example 8.43] | 79 |
| CC(=O)N[C@@H](C)c1ccc(O[C@@H]2CCN(c3nc(N4CC(F)(F)C(F)(F)C4)ncc3Cl)C2)cc1 [Example 8.222] | 150 |
| CCCN(C)c1ncc(C)c(N2CC[C@@H](Oc3ccc([C@H](C)NC(C)=O)cc3)C2)n1 [Example 8.48] | 312 |
| CC(=O)N[C@@H](C)c1ccc(O[C@@H]2CCN(c3ccnc(N4CC5(CCC5)C4)n3)C2)cc1 [Example 8.75] | 358 |
| CC(=O)N[C@@H](C)c1ccc(O[C@@H]2CCN(c3nc(N4CCOC(C(F)(F)F)C4)ncc3Cl)C2)cc1 (stereo partly shown) [Example 8.174] | 170 |

Exercise: May I ask what IC50 has been recorded for CC(=O)N[C@@H](C)c1ccc(O[C@@H]2CCN(c3nc(N4CC[C@H](F)C4)ncc3F)C2)cc1 [Example 8.184] ?
Key: 220

Exercise: Quick one: CC(=O)N[C@@H](C)c1ccc(O[C@@H]2CCN(c3ccnc(N(C)C4CC4)n3)C2)cc1 [Example 8.19]
Key: 475

Provenance of the data: patent US8962641B2
